# Target Under Test: T1, HEK293/hPRLR (Homo sapiens, UniProt P16471)
# T1 construct: HA; expressed in transfected cells; host or cells: HEK293
# T1 sequence (P16471 25-622): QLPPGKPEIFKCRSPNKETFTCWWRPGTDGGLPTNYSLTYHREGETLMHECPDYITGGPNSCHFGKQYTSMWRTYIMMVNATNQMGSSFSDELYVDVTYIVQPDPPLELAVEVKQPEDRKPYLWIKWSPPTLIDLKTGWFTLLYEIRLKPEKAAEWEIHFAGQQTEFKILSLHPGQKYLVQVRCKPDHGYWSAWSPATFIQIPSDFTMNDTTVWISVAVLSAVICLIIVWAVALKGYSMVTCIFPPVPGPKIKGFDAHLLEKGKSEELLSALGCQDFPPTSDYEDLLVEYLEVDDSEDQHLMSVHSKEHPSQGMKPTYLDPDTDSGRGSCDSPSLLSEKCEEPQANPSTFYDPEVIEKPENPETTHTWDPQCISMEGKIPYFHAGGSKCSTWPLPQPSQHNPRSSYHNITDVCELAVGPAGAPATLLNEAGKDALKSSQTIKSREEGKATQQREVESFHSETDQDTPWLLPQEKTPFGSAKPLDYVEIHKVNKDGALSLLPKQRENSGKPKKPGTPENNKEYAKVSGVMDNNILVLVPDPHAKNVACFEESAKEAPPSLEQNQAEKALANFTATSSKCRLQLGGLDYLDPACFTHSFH
# Method Summary: FACS cell surface binding
Measurement Name: FACS Cell Binding (Fold Above Background)

Molecule	Test Value
H1H6958N2: human IgG1 Fc form of H2M6958N2; anti-PRLR, receptor blocking; HCVR/LCVR SEQ ID NOs 290/298 (antibody, V domains shown, human IgG1 Fc) VH: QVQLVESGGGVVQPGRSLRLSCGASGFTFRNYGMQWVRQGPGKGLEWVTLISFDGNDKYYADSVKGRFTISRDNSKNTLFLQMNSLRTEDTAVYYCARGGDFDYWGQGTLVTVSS VL: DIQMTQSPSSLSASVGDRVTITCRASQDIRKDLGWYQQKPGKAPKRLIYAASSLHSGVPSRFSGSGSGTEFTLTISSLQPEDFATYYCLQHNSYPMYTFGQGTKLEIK	35
